Below are pIC50 measurements against human DGAT2 (hDGAT2) (Homo sapiens) drawn from the literature.
pIC50: −log10 of the molar value.
TEST READOUT: pIC50

1. C[C@@H](NC(=O)c1ccc2c(-c3ccccc3Cl)nn(-c3ccc(F)cc3)c2c1)c1cnc(C(F)(F)F)nc1 | 7.17
2. O=C(NC1(CO)CCOCC1)c1ccc2c(-c3ccccc3Cl)nn(-c3ccc(F)cc3)c2c1 | 7.33
3. CC1(NC(=O)c2ccc3c(-c4cccc(C5CC5)c4)cn(-c4ncc(F)cn4)c3c2)CCS(=O)(=O)C1 (single isomer, unassigned; enantiomer a) | 8.57
4. O=C(N[C@H]1CCC[C@@H]1O)c1ccc2c(-c3ccccc3Cl)nn(-c3ccc(F)cc3)c2c1 | 6.81
5. O=C(NC1CCS(=O)(=O)C1)c1ccc2c(-c3ccccc3F)cn(-c3ccc(F)cc3)c2c1 (racemic) | 7.59
6. CC(C)(O)Cn1nc(-c2cccc(OC(F)F)c2)c2ncc(C(=O)NC3(C)CS(=O)(=O)C3)cc21 | 7.66
7. CC(NC(=O)c1ccc(-c2cccc(C(F)(F)F)c2)c2c1CN(C(=O)NC(C)(C)C)CC2)c1cn2ncsc2n1 (stereo not shown) | 6.41
